// data source = patent US20200262813A1

Record form. Attribute: pIC50. Fill in for each entry.
Tested on: Pfeiffer cells
protocol: Cell proliferation test (cell counting kit-8, 6 days)
Assay type: cell-based
test settings: Homo sapiens, Pfeiffer, 144 h, 6 days' growth
In simple prose, pIC50 is minus the logarithm base ten of a concentration in moles per litre.

Item: CCN(c1c(F)c(-c2ccc(N3CCN(C)CC3)nc2)cc2c(NCc3c(C)cc(C)[nH]c3=O)nccc12)C1CCC(N(C)C)CC1 (stereo not shown) | pIC50: 6.67

The recorded pIC50 for entry CCN(c1cc(-c2ccc(N3CCN(C)CC3)nc2)cc2c(NCc3c(C)cc(C)[nH]c3=O)nccc12)C1CCC(O)CC1 (stereo not shown) equals 6.32

# compound CCN(c1cc(-c2cnc(N3CCOCC3)nc2)cc2c(NCc3c(C)cc(C)[nH]c3=O)nccc12)C1CCC(O)CC1 (stereo not shown) ; its pIC50 = 6.70

Reported pIC50 ( CCN(CCN(C)C)c1cc(-c2ccc(N3CCN(C)CC3)nc2)cc2c(NCc3c(C)cc(C)[nH]c3=O)nccc12 ) = 6.49

Entry under test: CCN(c1cc(-c2ccc(C3CC3)nc2)cc2c(NCc3c(C)cc(C)[nH]c3=O)nccc12)C1CCC(N(C)C)CC1 (stereo not shown) . Its pIC50 was 6.55

Reported pIC50 for CCN(c1cc(Cl)cc2c(NCc3c(C)cc(C)[nH]c3=O)nccc12)C1CCNCC1 was 6.88

# compound CCN(c1cc(Cl)cc2c(NCc3c(OC)cc(C)[nH]c3=O)nccc12)C1CCC(N(C)C)CC1 (stereo not shown) ; its pIC50 = 6.43

----------
For each of the molecules below, state its pIC50.
assayed target: Recombinant PRC2 (EZH2-Y641F) (Homo sapiens, UniProt Q15910, Y641F)
Sequence (Q15910 whole entry Y641F): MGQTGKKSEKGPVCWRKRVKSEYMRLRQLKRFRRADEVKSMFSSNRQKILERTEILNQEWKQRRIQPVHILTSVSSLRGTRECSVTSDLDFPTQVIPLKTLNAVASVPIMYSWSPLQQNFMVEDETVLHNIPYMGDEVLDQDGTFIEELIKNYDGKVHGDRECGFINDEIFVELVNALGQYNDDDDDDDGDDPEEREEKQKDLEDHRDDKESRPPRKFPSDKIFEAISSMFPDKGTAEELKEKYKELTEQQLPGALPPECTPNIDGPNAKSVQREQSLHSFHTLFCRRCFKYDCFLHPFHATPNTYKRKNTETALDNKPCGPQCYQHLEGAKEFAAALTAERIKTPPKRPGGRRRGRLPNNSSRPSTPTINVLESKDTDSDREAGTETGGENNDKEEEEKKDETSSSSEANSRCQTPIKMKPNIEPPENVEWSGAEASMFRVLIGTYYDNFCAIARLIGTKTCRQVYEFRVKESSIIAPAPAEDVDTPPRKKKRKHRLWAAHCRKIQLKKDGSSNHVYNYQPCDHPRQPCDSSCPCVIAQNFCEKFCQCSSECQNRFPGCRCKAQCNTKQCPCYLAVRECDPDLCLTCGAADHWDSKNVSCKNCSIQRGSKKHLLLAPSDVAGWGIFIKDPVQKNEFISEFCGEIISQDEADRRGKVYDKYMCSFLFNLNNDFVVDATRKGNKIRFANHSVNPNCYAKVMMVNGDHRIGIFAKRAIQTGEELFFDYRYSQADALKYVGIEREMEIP
Sequence (O75530 whole entry partner): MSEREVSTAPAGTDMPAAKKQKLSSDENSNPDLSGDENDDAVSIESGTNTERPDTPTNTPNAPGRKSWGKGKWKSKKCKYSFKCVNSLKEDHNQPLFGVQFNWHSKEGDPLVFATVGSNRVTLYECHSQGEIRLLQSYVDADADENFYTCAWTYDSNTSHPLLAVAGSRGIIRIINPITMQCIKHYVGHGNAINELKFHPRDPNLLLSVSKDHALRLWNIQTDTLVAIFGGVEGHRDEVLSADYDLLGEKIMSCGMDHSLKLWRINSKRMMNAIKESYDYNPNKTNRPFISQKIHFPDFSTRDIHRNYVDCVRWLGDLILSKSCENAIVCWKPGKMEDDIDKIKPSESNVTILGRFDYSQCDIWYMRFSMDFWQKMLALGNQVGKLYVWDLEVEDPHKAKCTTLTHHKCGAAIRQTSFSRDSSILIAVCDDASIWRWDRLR
Sequence (Q15022 whole entry partner): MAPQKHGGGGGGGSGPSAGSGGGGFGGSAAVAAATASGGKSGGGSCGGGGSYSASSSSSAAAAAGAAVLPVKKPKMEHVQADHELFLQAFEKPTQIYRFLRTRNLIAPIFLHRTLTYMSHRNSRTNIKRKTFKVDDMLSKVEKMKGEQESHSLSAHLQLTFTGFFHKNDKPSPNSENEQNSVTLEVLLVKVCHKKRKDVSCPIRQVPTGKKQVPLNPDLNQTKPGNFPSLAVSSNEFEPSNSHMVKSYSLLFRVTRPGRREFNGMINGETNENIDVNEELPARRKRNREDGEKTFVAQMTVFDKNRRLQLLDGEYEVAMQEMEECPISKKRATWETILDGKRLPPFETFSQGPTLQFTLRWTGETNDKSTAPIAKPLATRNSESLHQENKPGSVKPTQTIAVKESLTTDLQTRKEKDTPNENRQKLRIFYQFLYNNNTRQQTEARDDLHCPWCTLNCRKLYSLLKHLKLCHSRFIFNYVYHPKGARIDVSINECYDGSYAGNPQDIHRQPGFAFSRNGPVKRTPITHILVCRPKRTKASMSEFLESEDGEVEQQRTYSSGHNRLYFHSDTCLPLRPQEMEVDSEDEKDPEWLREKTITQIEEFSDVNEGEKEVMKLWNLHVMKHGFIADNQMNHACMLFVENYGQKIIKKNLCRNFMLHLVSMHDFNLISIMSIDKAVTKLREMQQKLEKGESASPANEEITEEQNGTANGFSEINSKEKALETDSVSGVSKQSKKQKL
Sequence (Q09028 whole entry partner): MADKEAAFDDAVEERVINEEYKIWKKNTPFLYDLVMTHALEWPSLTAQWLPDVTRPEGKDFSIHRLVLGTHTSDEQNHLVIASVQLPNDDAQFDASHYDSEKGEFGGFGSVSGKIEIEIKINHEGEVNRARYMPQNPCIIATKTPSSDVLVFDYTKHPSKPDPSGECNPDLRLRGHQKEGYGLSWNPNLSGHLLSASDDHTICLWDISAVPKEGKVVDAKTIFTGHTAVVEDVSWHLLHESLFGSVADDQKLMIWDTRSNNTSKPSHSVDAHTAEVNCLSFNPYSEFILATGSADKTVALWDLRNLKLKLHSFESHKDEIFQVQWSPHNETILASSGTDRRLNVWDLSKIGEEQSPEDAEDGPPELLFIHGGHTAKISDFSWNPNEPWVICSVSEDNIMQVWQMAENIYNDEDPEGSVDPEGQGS
Sequence (Q6ZN18 whole entry partner): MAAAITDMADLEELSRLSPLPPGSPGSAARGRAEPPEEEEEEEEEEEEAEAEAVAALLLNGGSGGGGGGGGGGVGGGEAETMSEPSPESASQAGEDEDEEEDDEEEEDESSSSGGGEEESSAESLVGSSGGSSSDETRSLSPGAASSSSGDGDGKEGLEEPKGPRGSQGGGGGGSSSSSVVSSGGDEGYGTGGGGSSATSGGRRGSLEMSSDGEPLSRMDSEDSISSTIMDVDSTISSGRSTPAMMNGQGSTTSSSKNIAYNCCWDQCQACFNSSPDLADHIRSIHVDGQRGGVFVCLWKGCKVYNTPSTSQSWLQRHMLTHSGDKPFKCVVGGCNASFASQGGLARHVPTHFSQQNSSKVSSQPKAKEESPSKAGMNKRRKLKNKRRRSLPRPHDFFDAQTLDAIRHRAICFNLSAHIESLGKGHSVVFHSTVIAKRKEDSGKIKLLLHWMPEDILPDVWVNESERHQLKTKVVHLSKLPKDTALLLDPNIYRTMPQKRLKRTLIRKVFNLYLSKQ
protocol: In vitro methyltransferase activity test (LANCE Ultra);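 note: compounds tested as an 8-point threefold dilution series, fluorescence read after 1 h detection step at room temperature, IC50 derived from a four-parameter curve fit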
test settings: EZH2 Y641F IC50, Recombinant PRC2 (EZH2-Y641F), LANCE Ultra detection, 3 hours reaction
API: returns pIC50 as number; meaning -log10 of concentration in mol/L.

Lookup result for CCN(c1cc(C#CCN2CCN(C)CC2)cc2c(NCc3c(C)cc(C)[nH]c3=O)nccc12)C1CCC(N(C)C)CC1 (stereo not shown) [Compound Z-180] ; measured pIC50: 7.89

The reported pIC50 of the molecule CCc1cc(C)[nH]c(=O)c1CNc1nccc2c(N(CC)C3CCC(N(C)C)CC3)cc(Cl)cc12 (stereo not shown) [Compound Z-204] was 7.62

Note to self: pIC50 recorded for CCN(c1cc(-c2cnc(N3CCN(C)CC3)nc2)cc2c(NCc3c(C)cc(C)[nH]c3=O)nccc12)C1CCN(C(C)C)CC1 [Compound Z-67] was 7.15

Lab note: CCN(c1cc(N(C)c2cccnc2)cc2c(NCc3c(C)cc(C)[nH]c3=O)nccc12)C1CCC(N(C)C)CC1 (stereo not shown) [Compound Z-186] gave pIC50 of 7.17

Looking up CCN(c1cc(-c2ccc(CN3CCN(C)CC3)nc2)cc2c(NCc3c(C)cc(C)[nH]c3=O)nccc12)C1CCC(O)CC1 (stereo not shown) [Compound Z-196] , I found its pIC50 recorded as 7.80

pIC50 measured on CCN(c1cc(C2CCN(C)CC2)cc2c(NCc3c(C)cc(C)[nH]c3=O)nccc12)C1CCC(O)CC1 (stereo not shown) [Compound Z-212] = 6.73

Item: CCN(c1cc(Cl)cc2c(NCc3c(C)cc(C)[nH]c3=O)nccc12)C1CC2(CNC2)C1 [Compound Z-207] | pIC50: 7.49

// recorded pIC50 for CCN(c1cc(-c2ccc(N3CCN(C)CC3)nc2)cc2c(NCc3c(C)cc(C)[nH]c3=O)nccc12)C1CCN(C(C)=O)CC1 [Compound Z-57] : 7.07

Lab note: CCN(c1cc(-c2ccc(C3CCN(C)CC3)nc2)cc2c(NCc3c(C)cc(C)[nH]c3=O)nccc12)[C@H]1CC[C@H](N(C)C)CC1 [Compound Z-17] gave pIC50 of 7.89

Sample CCN(c1cc(-c2cnc(N3CCN(C)CC3)nc2)cc2c(NCc3c(C)cc(C)[nH]c3=O)nccc12)C1CCC(O)CC1 (stereo not shown) [Compound Z-89] ; pIC50 observed: 7.37

The reported pIC50 of the molecule CCN(c1cc(-c2ccc(CN3CCC[C@H](O)C3)cc2)cc2c(NCc3c(C)cc(C)[nH]c3=O)nccc12)C1CCOCC1 [Compound Z-31] was 6.48

CCN(c1cc(-c2ccccc2)cc2c(NCc3c(C)cc(C)[nH]c3=O)nccc12)C1CCC(N(C)C)CC1 (stereo not shown) [Compound Z-75] yielded pIC50 of 6.89

GET /value?item= CCN(c1cc(-c2ccc(CN3CCN(C(C)C)CC3)nc2)cc2c(NCc3c(C)cc(C)[nH]c3=O)nccc12)C1CCOCC1 [Compound Z-112] &field=pIC50 returns 7.02
